Catalogue of T/C readings, one per entry.
System: BDF1 mice, P388 leukemia ip, median survival T/C
Test: NCI In Vivo Anticancer Drug Screen. Data for tumor model P388 Leukemia (intraperitoneal) in B6D2F1 (BDF1) mice
Settings: endpoint: median survival time; dose: 50.0 mg/kg/injection; schedule: Q04DX003 (ip); vehicle: saline with Tween-80; higher = longer survival
Inconclusive results and toxic doses are left out.
PROPERTY MEASURED: T/C

[
  {
    "COMPOUND": "Cn1nc(N)c2ncc(C(Cl)(Cl)Cl)nc21",
    "PROPERTY MEASURED": "T/C",
    "VALUE": "105 % of control"
  },
  {
    "COMPOUND": "CC(C)=NNS(=O)(=O)c1ccccc1",
    "PROPERTY MEASURED": "T/C",
    "VALUE": "95 % of control"
  },
  {
    "COMPOUND": "O=c1c2ccccc2sc2c(CO)ccc(NCCN3CCCCC3)c12",
    "PROPERTY MEASURED": "T/C",
    "VALUE": "101 % of control"
  },
  {
    "COMPOUND": "COc1cc(/C=N\\NC(=O)CC#N)cc(OC)c1OC",
    "PROPERTY MEASURED": "T/C",
    "VALUE": "95 % of control"
  },
  {
    "COMPOUND": "C=CCN(C)/N=N/c1[nH]ncc1C(N)=O",
    "PROPERTY MEASURED": "T/C",
    "VALUE": "104 % of control"
  },
  {
    "COMPOUND": "CC1CCC2(CC1)NC(=O)N(CNc1ccccc1)C2=O (configuration not stated)",
    "PROPERTY MEASURED": "T/C",
    "VALUE": "100 % of control"
  },
  {
    "COMPOUND": "CCCNC(C)(C)C(SS)c1ccc(Cl)cc1 (configuration not stated)",
    "PROPERTY MEASURED": "T/C",
    "VALUE": "109 % of control"
  }
]

###

Test system: BDF1 mice, P388 leukemia ip, median survival T/C
Assay: NCI In Vivo Anticancer Drug Screen. Data for tumor model P388 Leukemia (intraperitoneal) in B6D2F1 (BDF1) mice
Details: endpoint: median survival time; dose: 50.0 mg/kg/injection; schedule: Q04DX003 (ip); vehicle: Klucel (hydroxypropylcellulose) (HPC)
Inconclusive results and toxic doses are left out. Rule for the calls: active = survival T/C of 150% or more; inactive = T/C below 125% in these data.
Possible outcomes: active, inactive

[
  {
    "COMPOUND": "COC(OC)C(=O)/C=C/C(C)COC1CCCCO1 (stereo not drawn)",
    "EXPERIMENTAL SYSTEM": "BDF1 mice, P388 leukemia ip, median survival T/C",
    "QUALITATIVE LABEL": "inactive"
  },
  {
    "COMPOUND": "O=NN(CCCl)C(=O)N[C@@H]1CCCC[C@H]1NC(=O)N(CCCl)N=O",
    "EXPERIMENTAL SYSTEM": "BDF1 mice, P388 leukemia ip, median survival T/C",
    "QUALITATIVE LABEL": "active"
  },
  {
    "COMPOUND": "CSc1nc(N)cc(NC(=O)CCl)n1",
    "EXPERIMENTAL SYSTEM": "BDF1 mice, P388 leukemia ip, median survival T/C",
    "QUALITATIVE LABEL": "inactive"
  }
]
